Value source: patent US20190151446A1

# Target or test system: T1, human FcγRIIA (human, UniProt P12318 36-218)
# T1 construct: Bought protein, construct not described
# T1 sequence (looked up): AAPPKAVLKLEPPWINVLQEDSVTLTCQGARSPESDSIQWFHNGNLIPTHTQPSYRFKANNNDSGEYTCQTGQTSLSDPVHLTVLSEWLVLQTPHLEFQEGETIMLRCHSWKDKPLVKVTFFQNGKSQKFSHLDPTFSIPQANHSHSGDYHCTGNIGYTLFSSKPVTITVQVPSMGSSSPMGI
# Assay protocol: ELISA, receptor coated on plate
Endpoint name: binding result

// returns reported binding result for input D221N/N563A mutant of hexa-Fc (Fc fusion, N-linked glycans at Asn221 (N1) and Asn297 (N77), Made on the hexa-Fc template in CHO-K1 cells; runs as higher order multimers approximating dodecamers; also called D221/N563A; D221N/N563A dodecamer) NKTHTCPPCPAPELLGGPSVFLFPPKPKDTLMISRTPEVTCVVVDVSHEDPEVKFNWYVDGVEVHNAKTKPREEQYNSTYRVVSVLTVCLQDWLNGKEYKCKVSNKALPAPIEKTISKAKGQPREPQVYTLPPSREEMTKNQVSLTCLVKGFYPSDIAVEWESNGQPENNYKTTPPVLDSDGSFFLYSKLTVDKSRWQQGNVFSCSVMHEALHNHYTQKSLSLSPGKLVLGPPLYAVSLVMSDTAGTCY
binds

// returns reported binding result for input N297A mutant of hexa-Fc (Fc fusion, N-linked glycan at Asn563 (N236), Made on the hexa-Fc template in CHO-K1 cells; still multimeric (pentamers and hexamers)) DKTHTCPPCPAPELLGGPSVFLFPPKPKDTLMISRTPEVTCVVVDVSHEDPEVKFNWYVDGVEVHNAKTKPREEQYASTYRVVSVLTVCLQDWLNGKEYKCKVSNKALPAPIEKTISKAKGQPREPQVYTLPPSREEMTKNQVSLTCLVKGFYPSDIAVEWESNGQPENNYKTTPPVLDSDGSFFLYSKLTVDKSRWQQGNVFSCSVMHEALHNHYTQKSLSLSPGKLVLGPPLYNVSLVMSDTAGTCY
no binding

// returns reported binding result for input D221N mutant of hexa-Fc (Fc fusion, N-linked glycans at Asn221 (N1), Asn297 (N77) and Asn563 (N236), Made on the hexa-Fc template in CHO-K1 cells; multimeric, hyper-sialylated) NKTHTCPPCPAPELLGGPSVFLFPPKPKDTLMISRTPEVTCVVVDVSHEDPEVKFNWYVDGVEVHNAKTKPREEQYNSTYRVVSVLTVCLQDWLNGKEYKCKVSNKALPAPIEKTISKAKGQPREPQVYTLPPSREEMTKNQVSLTCLVKGFYPSDIAVEWESNGQPENNYKTTPPVLDSDGSFFLYSKLTVDKSRWQQGNVFSCSVMHEALHNHYTQKSLSLSPGKLVLGPPLYNVSLVMSDTAGTCY
no binding

// returns reported binding result for input D221N/N297A mutant of hexa-Fc (Fc fusion, N-linked glycans at Asn221 (N1) and Asn563 (N236), Made on the hexa-Fc template in CHO-K1 cells; multimeric) NKTHTCPPCPAPELLGGPSVFLFPPKPKDTLMISRTPEVTCVVVDVSHEDPEVKFNWYVDGVEVHNAKTKPREEQYASTYRVVSVLTVCLQDWLNGKEYKCKVSNKALPAPIEKTISKAKGQPREPQVYTLPPSREEMTKNQVSLTCLVKGFYPSDIAVEWESNGQPENNYKTTPPVLDSDGSFFLYSKLTVDKSRWQQGNVFSCSVMHEALHNHYTQKSLSLSPGKLVLGPPLYNVSLVMSDTAGTCY
no binding
